Record: log10 Ki reported on Motilin receptor (Homo sapiens).
Sequence (O43193 whole entry): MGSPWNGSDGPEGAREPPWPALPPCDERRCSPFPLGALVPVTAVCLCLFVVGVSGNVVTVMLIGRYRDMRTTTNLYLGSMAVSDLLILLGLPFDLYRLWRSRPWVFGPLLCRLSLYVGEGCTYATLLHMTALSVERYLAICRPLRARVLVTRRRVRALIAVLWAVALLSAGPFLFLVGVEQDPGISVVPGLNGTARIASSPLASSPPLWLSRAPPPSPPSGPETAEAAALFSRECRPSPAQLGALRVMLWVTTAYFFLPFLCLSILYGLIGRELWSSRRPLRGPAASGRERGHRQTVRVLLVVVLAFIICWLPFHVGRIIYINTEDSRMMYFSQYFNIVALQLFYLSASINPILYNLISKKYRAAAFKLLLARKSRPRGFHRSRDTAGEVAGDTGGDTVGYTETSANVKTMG
Hello, just confirming the data are log10 of Ki with units of µM.

get_value(item= `CC(C)[C@H]1NC(=O)[C@@H](Cc2ccc(O)cc2)NCCOc2ccccc2/C=C/CNC(=O)[C@H](CO)NC1=O` , readout=log10 Ki) returns -0.19

Entry under test: `CCC[C@@H]1NC(=O)[C@@H](C(C)C)NC(=O)[C@@H](Cc2ccc(O)cc2)N(C(C)=O)CCOc2ccccc2CCCNC1=O` . Its log10 Ki was 0.81

Memo: `CCC[C@@H]1NC(=O)[C@@H](C(C)C)OC(=O)[C@@H](Cc2ccc(O)cc2)NCCOc2ccccc2CCCNC1=O` , reported log10 Ki: -0.72

Briefly, log10 Ki measured for `CCC[C@@H]1NC(=O)[C@@H](C(C)C)NC(=O)[C@@H](Cc2cccc3ccccc23)NCCOc2ccccc2CCCNC1=O` : -2.08

Lab note: `CCC[C@@H]1NC(=O)[C@@H](C(C)C)NC(=O)[C@@H](Cc2ccccc2)NCCOc2ccccc2CCCNC1=O` gave log10 Ki of -1.24

For this compound ( `CCC[C@H]1NC(=O)[C@@H](C(C)C)NC(=O)[C@@H](Cc2ccc(O)cc2)NCCOc2ccccc2/C=C/CNC1=O` ), measured log10 Ki is -0.47

Summary for this compound, `CCC[C@@H]1NC(=O)[C@@H](C(C)C)NC(=O)[C@@H](Cc2ccc(OC)cc2)NCCOc2ccccc2CCCNC1=O` : log10 Ki is -2.10

Record `CCC[C@@H]1NC(=O)[C@@H](C(C)C)NC(=O)[C@@H](Cc2csc3ccccc23)NCCOc2ccccc2CCCNC1=O` . Reported log10 Ki: -1.96

Sure, the documented log10 Ki for `CCC[C@@H]1NC(=O)[C@@H](C(C)C)NC(=O)[C@@H](C(C)C)NCCOc2ccccc2/C=C/CNC1=O` is 0.55

Consider `CCC[C@@H]1NC(=O)[C@@H](C(C)C)NC(=O)[C@@H](Cc2ccc(O)cc2)NCCc2ccccc2CCCCNC1=O` . Its measured log10 Ki is 0.78
